Would you kindly list k2/Ki for each of these molecules?
ASSAY_SYSTEM: Papain (Carica papaya) (UniProt P00784)
Sequence (P00784 whole entry): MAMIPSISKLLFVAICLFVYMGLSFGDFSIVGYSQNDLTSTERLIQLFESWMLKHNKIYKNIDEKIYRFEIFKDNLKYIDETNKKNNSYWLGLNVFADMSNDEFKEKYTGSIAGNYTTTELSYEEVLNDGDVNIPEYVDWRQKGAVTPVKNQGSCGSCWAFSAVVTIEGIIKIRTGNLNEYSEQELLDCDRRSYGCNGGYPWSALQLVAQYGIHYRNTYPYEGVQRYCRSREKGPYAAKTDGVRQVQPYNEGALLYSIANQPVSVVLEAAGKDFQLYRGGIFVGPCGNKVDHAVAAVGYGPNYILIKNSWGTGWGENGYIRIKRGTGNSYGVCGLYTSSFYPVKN
PROCEDURE_DETAILS: The apparent second-order rate constant for inactivation of papain enzyme. Apparent rate constant was determined from repeats of Kobs vs [I] using at least 5 values of [I].
All answers are understood in M⁻¹ s⁻¹, so give the number only.

[ask] Recorded k2/Ki of CCOC(=O)NNC(=O)[C@H](Cc1ccccc1)NC(C)=O , please.
[reply] 47

[ask] Recorded k2/Ki of CC(=O)N[C@@H](Cc1ccccc1)C(=O)NN(C)C(=O)OCC(Cl)(Cl)Cl , please.
[reply] 12

[ask] Recorded k2/Ki of CC(=O)N[C@@H](Cc1ccccc1)C(=O)NNC(N)=O , please.
[reply] 4

[ask] Recorded k2/Ki of CC(=O)N[C@@H](Cc1ccccc1)C(=O)NNC(=O)OCCCl , please.
[reply] 1150

[ask] Recorded k2/Ki of CC(=O)N[C@@H](Cc1ccccc1)C(=O)NNC(=O)OCCBr , please.
[reply] 1250
